Where do the numbers come from? From ChEMBL document CHEMBL1150832.

Each item that follows carries a reported MIC.
# Tested on: Staphylococcus aureus
# Experimental details: Antimicrobial activity against methicillin-resistant Staphylococcus aureus 0007 after 20 hrs by serial twofold dilution method
# Assay type: functional
# Test context: Staphylococcus aureus, 0007, 20 h
Give your result in µg/mL as a bare value.

Consider the worked cases shown below.
Compound	Value reported
COc1cc2c(cc1OC)-c1c(c(C=O)cc3ccc(O)c(OC)c13)C2=O	16
COc1cc2c(cc1OC)C(O)c1c(C=O)cc3ccc(O)c(OC)c3c1-2 (centres undefined)	64

Field: next compound
Noted MIC for COc1cc(-c2c3c(cc4cc(OC)c(O)cc24)C(=O)OC3)ccc1O [DETETRAHYDROCONIDENDRIN] , tested on Staphylococcus aureus: 16
